Biological target: NNMT (Mus musculus)
Sequence (O55239 1-264): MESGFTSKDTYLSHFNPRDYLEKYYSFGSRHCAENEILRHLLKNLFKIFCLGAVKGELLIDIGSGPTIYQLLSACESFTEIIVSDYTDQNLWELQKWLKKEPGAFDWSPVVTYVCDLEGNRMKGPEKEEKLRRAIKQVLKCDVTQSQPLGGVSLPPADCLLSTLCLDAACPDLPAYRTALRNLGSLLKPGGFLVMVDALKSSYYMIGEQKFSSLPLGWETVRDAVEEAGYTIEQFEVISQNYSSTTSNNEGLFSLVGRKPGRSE
Assay: Intracellular NNMT reaction product 1-MNA in cultured 3T3-L1 cells
Conditions: read-out: EC50 (inhibition of NNMT, intracellular 1-MNA); fully differentiated adipocytes, 24 h, 0.3–60 µM
ENDPOINT NAME: EC50 (nM)
Report as a plain number; the unit nM is understood.

[Q] Give EC50 (NNMT (Mus musculus)) of the following compound: C[n+]1cccc2c(N)cccc21 [5-amino-1MQ, 5-amino-1-methylquinolinium]
[A] 2300

###

Settings: PAMPA, 4 h, 400 µM
ENDPOINT NAME: Flux (cm/s)

Example entries begin here.
COMPOUND	Flux / cm/s
C[n+]1c(N)c(N)cc2ccccc21 [2,3-diamine-1MQ]	3.898e-06
C[n+]1cccc2ccc(N)cc21 [7-amino-1MQ]	2.055e-06
C[n+]1cccc2c(N)cccc21 [5-amino-1MQ, 5-amino-1-methylquinolinium]	3.015e-06

1: Cc1cc(C)[n+](C)c2c(C)cccc12 [1,2,4,8-tetraMQ]
2: C[n+]1cc(N)cc2cc(F)ccc21 [3-amino-6-fluoro-1MQ]
[Q] I'm curious, which of these has a smaller Flux number: 1 or 2 ? Use the label to indicate which entry you chose.
[A] 1
(1: 6.982e-07 cm/s, 2: 1.078e-06 cm/s)

###

Molecular target: recombinant human PRMT3 (Homo sapiens, UniProt O60678)
Sequence (O60678 whole entry): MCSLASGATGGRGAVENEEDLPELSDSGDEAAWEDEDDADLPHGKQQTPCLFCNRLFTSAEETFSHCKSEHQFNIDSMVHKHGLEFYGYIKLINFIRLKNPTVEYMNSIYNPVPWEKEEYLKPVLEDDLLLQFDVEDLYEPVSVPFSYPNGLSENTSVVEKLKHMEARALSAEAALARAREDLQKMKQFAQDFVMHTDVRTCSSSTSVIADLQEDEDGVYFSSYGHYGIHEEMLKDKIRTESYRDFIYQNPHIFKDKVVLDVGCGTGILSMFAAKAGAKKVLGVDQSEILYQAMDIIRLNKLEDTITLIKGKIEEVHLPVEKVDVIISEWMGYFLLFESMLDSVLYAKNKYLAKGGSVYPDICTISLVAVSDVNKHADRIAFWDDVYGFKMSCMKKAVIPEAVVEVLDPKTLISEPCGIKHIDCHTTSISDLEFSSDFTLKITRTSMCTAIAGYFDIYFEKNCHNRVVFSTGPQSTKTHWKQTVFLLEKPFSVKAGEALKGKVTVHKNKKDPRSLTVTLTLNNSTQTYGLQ
Experiment: PRMT3 radiometric activity assay
Conditions: read-out: IC50, Protein arginine methyltransferase 3; NI: no inhibition; NC: not calculable
ENDPOINT NAME: pIC50
The read-out pIC50 is expressed as -log10 of concentration in moles per litre.

[Q] What does the record list as pIC50 for Nc1ncnc2c1ncn2[C@@H]1O[C@H](CSCC[C@H](N)C(=O)O)[C@@H](O)[C@H]1O [SAH, reference compound] ?
[A] 5.18

###

Biological target: recombinant human NAMPT (Homo sapiens, UniProt P43490)
Sequence (P43490 whole entry): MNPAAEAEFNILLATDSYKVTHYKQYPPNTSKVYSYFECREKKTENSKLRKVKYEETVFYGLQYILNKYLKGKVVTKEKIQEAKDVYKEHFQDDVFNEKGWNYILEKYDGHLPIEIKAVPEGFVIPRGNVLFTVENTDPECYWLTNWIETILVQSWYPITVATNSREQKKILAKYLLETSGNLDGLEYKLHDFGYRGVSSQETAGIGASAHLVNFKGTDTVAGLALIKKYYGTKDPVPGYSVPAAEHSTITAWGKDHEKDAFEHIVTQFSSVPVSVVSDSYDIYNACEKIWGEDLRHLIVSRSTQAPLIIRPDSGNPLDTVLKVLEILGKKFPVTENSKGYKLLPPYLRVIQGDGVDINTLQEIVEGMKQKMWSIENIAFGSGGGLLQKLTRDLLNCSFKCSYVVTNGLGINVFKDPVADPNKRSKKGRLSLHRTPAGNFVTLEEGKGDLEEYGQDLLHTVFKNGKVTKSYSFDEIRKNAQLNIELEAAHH
Assay: NAMPT fluorometric activity assay
Details: read-out: IC50, Nicotinamide phosphoribosyl transferase; concentrations above 100 µM could not be tested due to interference in the assay readout signal
pIC50: −log10 of the molar value.
ENDPOINT NAME: pIC50

[Q] Give pIC50 (recombinant human NAMPT (Homo sapiens, UniProt P43490)) of the following molecule: C[n+]1cccc2c(N)cccc21 [5-amino-1MQ, 5-amino-1-methylquinolinium]
[A] < 4.00

###

Target: recombinant human DNMT1 (Homo sapiens)
Sequence (P26358 whole entry): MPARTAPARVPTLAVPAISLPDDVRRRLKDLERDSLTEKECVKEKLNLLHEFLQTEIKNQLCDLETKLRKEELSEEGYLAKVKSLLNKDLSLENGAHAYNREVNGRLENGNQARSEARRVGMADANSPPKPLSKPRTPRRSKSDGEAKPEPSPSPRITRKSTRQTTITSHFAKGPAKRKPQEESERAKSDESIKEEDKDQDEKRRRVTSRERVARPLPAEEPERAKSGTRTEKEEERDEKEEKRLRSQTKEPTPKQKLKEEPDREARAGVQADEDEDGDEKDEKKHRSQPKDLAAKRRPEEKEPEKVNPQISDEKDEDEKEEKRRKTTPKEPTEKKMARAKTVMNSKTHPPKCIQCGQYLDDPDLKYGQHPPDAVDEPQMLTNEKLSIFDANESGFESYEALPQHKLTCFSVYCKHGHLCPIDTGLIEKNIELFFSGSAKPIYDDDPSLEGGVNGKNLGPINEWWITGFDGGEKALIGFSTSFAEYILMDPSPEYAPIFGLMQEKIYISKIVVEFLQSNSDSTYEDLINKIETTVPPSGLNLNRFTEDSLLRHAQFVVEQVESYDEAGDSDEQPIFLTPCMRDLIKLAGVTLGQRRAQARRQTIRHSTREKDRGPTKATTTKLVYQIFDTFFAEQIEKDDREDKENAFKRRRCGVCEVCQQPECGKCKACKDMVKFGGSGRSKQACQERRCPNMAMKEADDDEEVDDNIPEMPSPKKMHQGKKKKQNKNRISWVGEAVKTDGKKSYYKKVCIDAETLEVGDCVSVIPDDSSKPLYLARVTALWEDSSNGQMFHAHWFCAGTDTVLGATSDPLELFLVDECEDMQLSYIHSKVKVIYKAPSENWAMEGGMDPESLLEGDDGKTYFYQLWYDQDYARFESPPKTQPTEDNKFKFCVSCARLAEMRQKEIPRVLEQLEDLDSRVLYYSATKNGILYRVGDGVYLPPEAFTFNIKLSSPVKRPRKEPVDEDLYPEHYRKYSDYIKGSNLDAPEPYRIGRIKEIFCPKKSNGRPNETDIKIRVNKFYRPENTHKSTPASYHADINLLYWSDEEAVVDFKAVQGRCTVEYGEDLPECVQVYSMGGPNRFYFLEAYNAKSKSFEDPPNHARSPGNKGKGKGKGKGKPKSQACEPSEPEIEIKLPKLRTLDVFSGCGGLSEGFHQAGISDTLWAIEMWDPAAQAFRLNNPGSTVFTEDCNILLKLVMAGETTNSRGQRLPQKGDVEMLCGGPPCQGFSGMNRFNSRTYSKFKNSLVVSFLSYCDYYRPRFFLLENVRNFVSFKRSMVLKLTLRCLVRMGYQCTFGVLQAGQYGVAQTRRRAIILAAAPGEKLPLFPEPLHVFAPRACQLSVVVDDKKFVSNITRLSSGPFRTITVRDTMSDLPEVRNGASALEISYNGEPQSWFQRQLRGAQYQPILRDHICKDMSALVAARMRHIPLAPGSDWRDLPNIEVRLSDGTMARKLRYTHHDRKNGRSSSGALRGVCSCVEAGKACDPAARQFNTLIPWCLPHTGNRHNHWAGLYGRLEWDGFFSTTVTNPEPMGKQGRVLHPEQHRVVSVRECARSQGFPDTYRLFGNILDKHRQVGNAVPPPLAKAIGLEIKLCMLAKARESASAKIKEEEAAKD
Assay: DNMT1 radiometric activity assay
Conditions: read-out: IC50, DNA (cytosine-5)-methyltransferase 1; NI: no inhibition; NC: not calculable
ENDPOINT NAME: IC50

MOLECULE	READOUT VALUE
C[n+]1cccc2c(N)cccc21 [5-amino-1MQ, 5-amino-1-methylquinolinium]	> 200 µM

# evaluate next
[Q] Give IC50 (recombinant human DNMT1 (Homo sapiens)) of the following molecule: Cc1cccc2ccc[n+](C)c12 [1,8-diMQ]
[A] > 200 µM
